TEST SYSTEM: T1, Pex13, P80667
T1 sequence (P80667 295-386, looked up): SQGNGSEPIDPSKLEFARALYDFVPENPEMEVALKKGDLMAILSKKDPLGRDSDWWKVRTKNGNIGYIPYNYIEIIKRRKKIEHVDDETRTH
ASSAY NOTES: SPOT array
PROTOCOL CONDITIONS: median of control spots 1341
MEASURED METRIC: SPOT intensity

Answered examples (2):
BINDER: RRSKSLPITPKSIFN
SPOT intensity: 8
//
BINDER: ATNVPVAPPPPPASL
SPOT intensity: 0

a = HAPPLPPTAPPPPSL
b = LYKRKPILLPDPKPL
c = NRLRKRLNLPSEISI
d = STPQTMRQAPKRPDA
e = YRRKSIPFAPHQITA
Q. Sort by SPOT intensity, descending. Kindly provide the labels arranged according to the requested ordering.
A. d, e, c, b, a
(d: 116, e: 10, c: 2, b: 1, a: 0)

Attribution: paper PMC2756588
